Assay: Biodistribution in HEK-ACE2/HEK-ACE xenografted mice
Type: in vivo, mouse
Conditions: female, CD1/nude, mouse, muscle, iv, 0.5 nmol, total radioactivity, 3 h after i.v. injection, decay-corrected, n = 3; read-out: Biodistribution: muscle
Residues, ends and D or L forms follow the SMILES beside them. *: point of attachment. DOTA = O=C(O)CN1CCN(CC(=O)O)CCN(CC(=O)*)CCN(CC(=O)O)CC1; Ahx = NCCCCCC(=O)O
quantity: tissue uptake at 3 h
Respond with the figure and its unit, in that order.

Provide only the value of recorded tissue uptake at 3 h for CC[C@H](C)[C@H](NC(=O)[C@H](CCC(N)=O)NC(=O)[C@@H]1CCCN1C(=O)[C@H](CCCNC(=N)N)NC(=O)[C@@H]1CCCN1C(=O)[C@H](Cc1c[nH]c2ccccc12)NC(=O)[C@H](CCC(=O)O)NC(=O)CCCCCNC(=O)CCCCCNC(=O)CN1CCN(CC(=O)O)CCN(CC(=O)O)CCN(CC(=O)O)CC1)C(=O)N1CCC[C@H]1C(=O)N1CCC[C@H]1C(=O)O [[^67Ga]Ga-DOTA-BPP9a, metal not drawn] ({DOTA-Ahx-Ahx}-EWPRPQIPP-OH) 0.02 %ID/g

Entry source: paper PMC10113987
